experimental_details: Kinetic solubility of compound by measuring concentration at pH 7.4 in saturated PBS buffer by UV LCMS/MS using calibration curves. The assay has been performed by Enamine biological services, Bienta Ltd.The protocol is publicly available: dx.doi.org/10.17504/protocols.io.j8nlk8y41l5r/v1
Assay type: physicochemical
run_conditions: buffer
reported_endpoint: Solubility (mean) (µM)

{"columns": ["query_smiles", "unit_label", "Solubility (mean)"],
 "data": [
  ["CCNC(=O)c1cc2c(N[C@@H](c3ccc4c(c3)S(=O)(=O)CCC4)C(C)C)ncnc2[nH]1", "µM", 316],
  ["CC(C)[C@@H](Nc1ncnc2[nH]c(-c3cnn(CC(N)=O)c3)cc12)c1ccc2c(n1)OCCO2", "µM", 395],
  ["CNC(=O)Cn1cc(-c2cc3c(N[C@@H](c4ccc5c(c4)S(=O)(=O)CCC5)C(C)C)ncnc3[nH]2)cn1", "µM", 294],
  ["CC(C)[C@@H](Nc1ncnc2[nH]c(-c3cnn(CC(N)=O)c3)cc12)c1ccc2c(c1)OCCO2", "µM", 332],
  ["CC(C)[C@@H](Nc1ncnc2[nH]c(-c3cnn(C)c3C#N)cc12)c1ccc2c(n1)NC(=O)CO2", "µM", 28]
]}

[P] CC(C)[C@@H](Nc1ncnc2[nH]c(-c3cnn(C)c3C#N)cc12)c1ccc2c(c1)OCCO2
[Q] CNCc1cc(-c2cc3c(N[C@@H](c4ccc5c(c4)S(=O)(=O)CCC5)C(C)C)ncnc3[nH]2)co1
Sort P and Q by Solubility (mean) descending and give the first. Respond with the label that goes with your answer.
Q

[P] CNC(=O)c1cc2c(N[C@@H](c3ccc4c(c3)NC(=O)CO4)C(C)C)ncnc2[nH]1
[Q] CC(C)[C@@H](Nc1ncnc2[nH]cc(C(=O)NC3CC3)c12)c1ccc2c(c1)S(=O)(=O)CCC2
[R] CC(C)[C@@H](Nc1ncnc2[nH]c(-c3cnn(C)c3)cc12)c1ccc2c(c1)S(=O)(=O)CCC2
Please produce an ascending ranking of these compounds based on Solubility (mean). Form entry: labels listed in requested order.
R, Q, P
(R: 111 µM, Q: 216 µM, P: 380 µM)

[A] CC(C)[C@@H](Nc1ncnc2[nH]c(-c3cnn(CC(N)=O)c3)cc12)c1ccc2c(c1)S(=O)(=O)CCC2
[B] CC(C)[C@@H](Nc1ncnc2[nH]c(-c3cnn(C)c3C#N)cc12)c1ccc2c(c1)S(=O)(=O)CCC2
[C] CC(C)[C@@H](Nc1ncnc2[nH]c(-c3cnn(CC(=O)N(C)C)c3)cc12)c1ccc2c(c1)OCCO2
[D] CC(C)(C)[C@@H](Nc1ncnc2[nH]c(-c3cnn(CC(N)=O)c3)cc12)c1ccc2c(c1)OCCO2
Please produce an ascending ranking of these compounds based on Solubility (mean). Form entry: labels listed in requested order.
B, D, C, A

* * *

experimental_details: Kinetic solubility of compound by measuring concentration at pH 7.4 in saturated PBS buffer by UV LCMS/MS using calibration curves. The assay has been performed by Enamine biological services, Bienta Ltd.The protocol is publicly available: dx.doi.org/10.17504/protocols.io.j8nlk8y41l5r/v1
Assay type: physicochemical
run_conditions: PBS buffer
reported_endpoint: solubility kinetic (µM)

Guide cases for solubility kinetic, answers given:
{"columns": ["query_smiles", "solubility kinetic / µM"],
 "data": [
  ["CC(C)[C@@H](Nc1ncnc2[nH]c(-c3cnn(C)c3)cc12)c1ccc2c(c1)S(=O)(=O)CCC2", 94],
  ["Cn1ncc(-c2cc3c(N[C@@H](c4ccc5c(c4)OCCO5)C(C)(C)C)ncnc3[nH]2)c1C#N", 25],
  ["CC(C)[C@H](Nc1ncnc2[nH]c(-c3cnn(CC(=O)N(C)C)c3)cc12)c1ccc2c(c1)S(=O)(=O)CCC2", 361],
  ["CC(C)[C@@H](Nc1ncnc2[nH]c(-c3cnn(C)c3C#N)cc12)c1ccc2c(c1)S(=O)(=O)CCC2", 34],
  ["CC(C)[C@@H](Nc1ncnc2[nH]c(-c3cnn(C)c3C#N)cc12)c1ccc2c(c1)OCCO2", 17]
]}

[A] CC(C)[C@H](Nc1ncnc2[nH]c(C(=O)N[C@H]3CCN(C)C3)cc12)c1ccc2c(c1)S(=O)(=O)CCC2
[B] CC(C)[C@@H](Nc1ncnc2[nH]c(-c3cnn(C)c3C#N)cc12)c1ccc2c(n1)NC(=O)CO2
[C] COc1ccc2c(c1)CCN(c1ncnc3[nH]ccc13)[C@H]2C(C)C
Please produce an ascending ranking of these molecules based on solubility kinetic. Form entry: labels listed in requested order.
C, B, A

[a] CC(C)[C@@H](Nc1ncnc2[nH]ccc12)c1ccc2c(c1)S(=O)(=O)CCO2
[b] CC(C)[C@H](Nc1ncnc2[nH]c(-c3cnn(C)c3C#N)cc12)c1ccc2c(c1)S(=O)(=O)CCC2
[c] CC(C)(C)[C@@H](Nc1ncnc2[nH]c(-c3cnn(CC(N)=O)c3)cc12)c1ccc2c(c1)OCCO2
[d] CC(C)[C@@H](Nc1ncnc2[nH]c(-c3ccc4nnn(C)c4c3)cc12)c1ccc2c(c1)S(=O)(=O)CCC2
Please produce an ascending ranking of these molecules based on solubility kinetic. Form entry: labels listed in requested order.
d, b, c, a

[A] CNCc1cc(-c2cc3c(N[C@@H](c4ccc5c(c4)S(=O)(=O)NCC5)C(C)C)ncnc3[nH]2)co1
[B] CNC(=O)c1c[nH]c2ncnc(N[C@@H](c3ccc4c(c3)NC(=O)CO4)C(C)C)c12
[C] CC(C)[C@H](Nc1ncnc2[nH]c(-c3cnn(C)c3)cc12)c1ccc2c(c1)S(=O)(=O)CCC2
Please produce an ascending ranking of these molecules based on solubility kinetic. Form entry: labels listed in requested order.
B, C, A
(B: 28 µM, C: 111 µM, A: 372 µM)

[P] CCNC(=O)c1cc2c(N[C@H](c3ccc4c(c3)OCCO4)C(C)C)ncnc2[nH]1
[Q] CC(C)[C@@H](Nc1ncnc2[nH]c(C(=O)N[C@@H]3CCN(C)C3)cc12)c1ccc2c(c1)S(=O)(=O)CCC2
Which of these two has the smaller recorded solubility kinetic: P or Q ? Respond with the label that goes with your answer.
P
(P: 263 µM, Q: 392 µM)

[a] CNCc1cc(-c2cc3c(N[C@H](c4ccc5c(c4)S(=O)(=O)CCC5)C(C)C)ncnc3[nH]2)co1
[b] CC(C)[C@H](Nc1ncnc2[nH]c(-c3cnn(C)c3C#N)cc12)c1ccc2c(c1)NC(=O)CO2
Sort a and b by solubility kinetic descending and give the first. Respond with the label that goes with your answer.
a
(a: 358 µM, b: 26 µM)
